# measured on: UniProtKB P36639
# experiment notes: Inhibition of the MTH1 hydrolysis of 8-oxo-dGTP (HPLC)
# Type: biochemical
# study conditions: 50 μM 8-oxo-dGTP, 5 nM MTH1, pH 7.5, 37 °C, 10 min
Consider the following compounds; for each one, report its pIC50.
Numbers only, as −log10 of the molar value.

Nc1nc2c(c(Cl)c(Cl)n2[C@H]2C[C@H](O)[C@@H](CO)O2)c(=O)[nH]1
4.65
Nc1nc2c(c(I)c(I)n2[C@H]2C[C@H](O)[C@@H](COP(=O)(O)O)O2)c(=O)[nH]1
6.89
Nc1nc2c(c(I)c(I)n2[C@H]2C[C@H](O)[C@@H](COP(=O)(O)OP(=O)(O)OP(=O)(O)O)O2)c(=O)[nH]1
6.89
Nc1nc2c(cc(I)n2[C@H]2C[C@H](O)[C@@H](COP(=O)(O)O)O2)c(=O)[nH]1
6.08
Nc1nc2c(c(I)c(I)n2[C@H]2C[C@H](O)[C@@H](CO)O2)c(=O)[nH]1
4.77

I'm hoping you can list pIC50 for every compound here, please.
1. Nc1nc2c(c(Cl)c(Cl)n2[C@H]2C[C@H](O)[C@@H](COP(=O)(O)OP(=O)(O)OP(=O)(O)O)O2)c(=O)[nH]1
2. Nc1nc2c(c(Cl)c(Cl)n2[C@H]2C[C@H](O)[C@@H](COP(=O)(O)O)O2)c(=O)[nH]1

RESULT:
1: 6.80; 2: 6.89
